Source of measurements: paper PMC9482650

Biological target: T1, PDZRN3_1, Q9UPQ7
T1 sequence (Q9UPQ7 244-349, limits assumed, looked up): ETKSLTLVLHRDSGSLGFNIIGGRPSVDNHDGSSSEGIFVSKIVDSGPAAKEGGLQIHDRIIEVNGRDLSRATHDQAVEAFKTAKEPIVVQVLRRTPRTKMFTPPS
Experiment: holdup assay
Design: key: below the threshold = too weak to quantify, mostly under pKd 3.1 to 4
Settings: plain residues with an end cap or a label only (N-terminal biotin on a linker: ado-ado)
measured-endpoint: pKd

Observe how each entry below is paired with its result.
| binder | measured-endpoint | reported-result |
| --- | --- | --- |
| TNSRHGETTV [FZD2, Q14332] | pKd | 3.99 |
| EPQYQPGENL [SRC, P12931] | pKd | below the threshold |
| SVTSERETNI [SLC16A7, O60669] | pKd | 4 |
| GEDRSPPTAL [MKNK1, Q9BUB5] | pKd | below the threshold |

Next, consider the following binder.
For SLNANEVEWF [RNF130, Q86XS8] , what is its reported pKd?
below the threshold
